# assay system: Monoamine transporters; serotonin & dopamine (Homo sapiens) (UniProt P31645+Q01959)
# Sequence (P31645 whole entry, looked up): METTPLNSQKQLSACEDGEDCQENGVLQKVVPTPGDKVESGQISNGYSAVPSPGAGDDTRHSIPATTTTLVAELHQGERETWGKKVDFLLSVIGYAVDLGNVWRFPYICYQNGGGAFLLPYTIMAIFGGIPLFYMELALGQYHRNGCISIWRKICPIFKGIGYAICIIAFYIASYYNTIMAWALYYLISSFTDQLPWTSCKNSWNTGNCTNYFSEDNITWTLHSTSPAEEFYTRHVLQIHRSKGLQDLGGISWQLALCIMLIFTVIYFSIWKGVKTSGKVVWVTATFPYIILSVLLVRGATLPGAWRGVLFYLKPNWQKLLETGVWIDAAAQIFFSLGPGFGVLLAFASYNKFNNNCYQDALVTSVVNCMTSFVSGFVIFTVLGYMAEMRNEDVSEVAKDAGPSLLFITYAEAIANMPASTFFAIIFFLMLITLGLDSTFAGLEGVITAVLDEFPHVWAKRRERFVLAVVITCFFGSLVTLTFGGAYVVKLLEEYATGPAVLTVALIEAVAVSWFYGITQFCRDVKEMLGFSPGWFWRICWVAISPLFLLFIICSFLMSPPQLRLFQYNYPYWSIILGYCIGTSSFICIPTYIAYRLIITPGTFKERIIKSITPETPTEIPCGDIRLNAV
# Sequence (Q01959 whole entry, looked up): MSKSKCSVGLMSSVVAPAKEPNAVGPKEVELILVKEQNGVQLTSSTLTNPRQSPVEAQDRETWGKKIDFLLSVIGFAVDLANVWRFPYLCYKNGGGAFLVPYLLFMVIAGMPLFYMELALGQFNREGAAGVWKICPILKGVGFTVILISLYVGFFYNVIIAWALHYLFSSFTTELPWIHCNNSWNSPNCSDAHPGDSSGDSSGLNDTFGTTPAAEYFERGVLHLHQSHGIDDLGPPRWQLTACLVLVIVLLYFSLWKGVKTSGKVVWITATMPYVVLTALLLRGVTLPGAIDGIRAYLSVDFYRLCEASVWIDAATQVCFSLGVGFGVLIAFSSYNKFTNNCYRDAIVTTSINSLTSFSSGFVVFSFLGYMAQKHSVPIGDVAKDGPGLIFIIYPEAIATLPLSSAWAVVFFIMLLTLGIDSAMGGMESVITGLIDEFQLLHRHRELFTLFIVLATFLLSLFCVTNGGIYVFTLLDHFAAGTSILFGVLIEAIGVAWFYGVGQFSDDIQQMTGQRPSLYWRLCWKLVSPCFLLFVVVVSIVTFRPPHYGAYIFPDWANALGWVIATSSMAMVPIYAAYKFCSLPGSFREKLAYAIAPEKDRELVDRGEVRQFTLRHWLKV
# method: Selectivity ratio measured as the IC50 ratio of DAT receptor to that of 5-HT transporter
# test settings: Cercopithecidae
Would you mind telling me the reported Selectivity ratio of each entry?
Enter a number only.

Q: Selectivity ratio lookup needed for COC(=O)C1C2CCC(CC1c1ccc(Cl)c(Cl)c1)O2 (stereo in doubt; 7f (O-913)) , thanks.
Ans: 21

Q: Reported Selectivity ratio for COC(=O)C1C2CCC(CC1c1ccc(Cl)c(Cl)c1)O2 (stereo in doubt; form 3) : what is it?
Ans: 13

Q: // returns reported Selectivity ratio for input COC(=O)C1C2CCC(CC1c1ccccc1)O2 (stereo in doubt; 7a (O-905))
Ans: 6

Q: // lookup Selectivity ratio for COC(=O)C1C2CCC(CC1c1ccc(Cl)cc1)O2 (stereo in doubt; 7c (O-915))
Ans: 29

====

# pIC50 per entry for Sodium-dependent serotonin transporter (Homo sapiens, UniProt P31645)
Keep it numeric: pIC50 is minus log10 of the concentration in mol/L.

Q: // lookup pIC50 for COC(=O)C1C2CCC(CC1c1ccc(Br)cc1)O2 (stereo in doubt; form 2)
Ans: 6.56

Q: May I ask what pIC50 has been recorded for COC(=O)C1C2CCC(CC1c1ccc(Cl)c(Cl)c1)O2 (stereo in doubt; form 3) ?
Ans: 7.51

Q: Quick one: pIC50 for COC(=O)C1C2CCC(CC1c1ccc(Br)cc1)O2 (stereo in doubt; form 1) ?
Ans: 7.52

Q: Sample COC(=O)C1C2CCC(CC1c1ccc(I)cc1)O2 (stereo in doubt; 7e (O-949)) — what was its pIC50?
Ans: 7.14

Q: # get_value(readout='pIC50', item= COC(=O)C1C2CCC(CC1c1ccc(F)cc1)O2 (stereo in doubt; 6b (O-895)) )
Ans: 5.59

Q: Suppose we examine the compound COC(=O)C1C2CCC(CC1c1ccc(Cl)c(Cl)c1)O2 (stereo in doubt; 7f (O-913)) ; what pIC50 value has been reported?
Ans: 7.19

Q: Would you mind telling me what pIC50 value was observed for COC(=O)C1C2CCC(CC1c1ccc(Cl)cc1)O2 (stereo in doubt; 7c (O-915)) ?
Ans: 6.09

Q: Suppose we examine the compound COC(=O)C1C2CCC(CC1c1ccc(Cl)cc1)O2 (stereo in doubt; 6c (O-916)) ; what pIC50 value has been reported?
Ans: 6.97

Q: Form field: reported pIC50 of COC(=O)C1C2CCC(CC1c1ccc(Cl)c(Cl)c1)O2 (stereo in doubt; 6f (O-914))
Ans: 8.19

Q: Which pIC50 reading was recorded for the compound COC(=O)C1C(c2ccc(I)cc2)CC2CCC1N2C (stereo in doubt; 19d) ?
Ans: 7.19

Q: # get_value(readout='pIC50', item= COC(=O)C1C(c2ccc(I)cc2)CC2CCC1N2C (stereo in doubt; 8d) )
Ans: 8.38

Q: Could you tell me which pIC50 is on file for COC(=O)C1C2CCC(CC1c1ccccc1)O2 (stereo in doubt; 7a (O-905)) ?
Ans: 4.94

Q: So what's the measured pIC50 for this one? COC(=O)C1C2CCC(CC1c1ccc(Cl)c(Cl)c1)O2 (stereo in doubt; form 2)
Ans: 5.54

Q: So what's the measured pIC50 for this one? COC(=O)C1C(c2ccc(Cl)c(Cl)c2)CC2CCC1N2C (stereo in doubt; form 1)
Ans: 7.57

Q: Sample COC(=O)[C@H]1[C@@H](c2ccc(F)cc2)C[C@H]2CC[C@H]1N2C (stereo in doubt; 19b) — what was its pIC50?
Ans: 5.30

Q: pIC50 lookup needed for COC(=O)C1C2CCC(CC1c1ccc(Cl)c(Cl)c1)O2 (stereo in doubt; form 4) , thanks.
Ans: 8.33

Q: Consider the compound shown here: COC(=O)C1C2CCC(CC1c1ccc(Cl)c(Cl)c1)O2 (stereo in doubt; form 1) What is its recorded pIC50?
Ans: 7.24

Q: Recorded pIC50 for COC(=O)C1C2CCC(CC1c1ccc(I)cc1)O2 (stereo in doubt) , please?
Ans: 7.92

====

# assay system: Monoamine transporters; serotonin & dopamine (Homo sapiens) (UniProt P31645+Q01959)
# method: Selectivity ratio measured as the IC50 ratio of DAT receptor to that of 5-HT transporter
# test settings: Cercopithecidae
I'd appreciate it if you could supply Selectivity ratio values for the items below.
Output: the number by itself.

Q: Find the recorded Selectivity ratio belonging to COC(=O)C1C2CCC(CC1c1ccc(Cl)c(Cl)c1)O2 (stereo in doubt; form 2) and report it.
Ans: 51

Q: Fill blank: measured Selectivity ratio of the compound COC(=O)C1C2CCC(CC1c1ccc(Cl)cc1)O2 (stereo in doubt; 6c (O-916)) is ____.
Ans: 11

Q: Request the reported Selectivity ratio associated with COC(=O)C1C2CCC(CC1c1ccccc1)O2 (stereo in doubt; 6a (O-904))
Ans: 10

Q: Recorded Selectivity ratio for COC(=O)C1C2CCC(CC1c1ccc(Br)cc1)O2 (stereo in doubt; form 2) , please?
Ans: 31

Q: Given the entry COC(=O)C1C2CCC(CC1c1ccc(I)cc1)O2 (stereo in doubt; 7e (O-949)) , report its measured Selectivity ratio.
Ans: 2

Reference for the values: ChEMBL document CHEMBL1130119
